Values from PubChem BioAssay (NCI)

- Test system: RXF 393 renal
- test summary: NCI-60 one-dose screen, 48 h (100 = growth as untreated, 0 = no growth, -100 = all killed)
- condition parameters: 10 µM unless noted
About 83,000 compounds went through this panel and 20% of them were active in at least one assay; those are over-represented in the sample as a whole.
Rule: growth of 60% or more gives yes (1); anything lower gives no (0).

Known results for molecules:
molecule	tested on	label value
N#Cc1ccccc1-c1ccc(Cn2c(-c3cscn3)nc3c(Cl)cccc32)cc1	RXF 393 renal	yes (1)
COc1ccc(Oc2nc(Nc3ccc(N4CCOCC4)cc3)ncc2NC(=O)c2cccc(C(F)(F)F)c2)cc1	RXF 393 renal	yes (1)
CCN1C(=S)N(CC)C2C1NC(=S)N2/N=C/C=C/c1ccccc1 (stereo not given)	RXF 393 renal	no (0)

Could you verify whether the entry CCCCCCCCN(CCCCCCCC)CC(O)c1cc(Cl)ccc1OC (stereo not given) shows growth of no less than 60%?
no (0)

Could you verify whether the entry Nc1ccc(-c2ccc(N)c(Br)c2)cc1Br shows growth of no less than 60%?
no (0)
